Molecular target: p38 MAPKα (MAPK14) (Homo sapiens (Human))
Sequence (Q16539 whole entry): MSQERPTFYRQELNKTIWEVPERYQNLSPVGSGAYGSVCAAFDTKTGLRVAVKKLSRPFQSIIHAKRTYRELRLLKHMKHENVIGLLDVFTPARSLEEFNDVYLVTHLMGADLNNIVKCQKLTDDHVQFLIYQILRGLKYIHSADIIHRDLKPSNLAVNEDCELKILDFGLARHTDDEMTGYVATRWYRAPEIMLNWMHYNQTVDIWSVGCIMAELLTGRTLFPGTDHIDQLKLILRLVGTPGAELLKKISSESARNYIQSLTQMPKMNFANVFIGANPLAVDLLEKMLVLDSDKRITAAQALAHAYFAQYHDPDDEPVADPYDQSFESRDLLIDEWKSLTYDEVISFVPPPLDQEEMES
Experiment: p38 MAPKα enzyme inhibition (FRET, Z-LYTE; Method 2)
Type: biochemical
outcome_measure: pIC50
In plain terms, pIC50 is the concentration in mol/L turned into minus its base-10 logarithm.

Exercise: What value of pIC50 has been recorded for this entry: C#Cc1cc(Nc2cc(Oc3ccc(NC(=O)Nc4cc(C(N)=O)cc(C(C)(C)C)c4)c4ccccc34)ccn2)cc(C(=O)NCCOCCOCCOC)c1 [Example 62]
Solution: 7.49

Exercise: Entry COc1cc(CO)cc(Nc2cc(Oc3ccc(NC(=O)Nc4cc(C(C)(C)C)cc(C(N)=O)c4OC)c4ccccc34)ccn2)c1 [84(g)] has what pIC50?
Solution: 7.07

Exercise: Please look up its pIC50: COCCOCCOCCOc1cc(Nc2nccc(Oc3ccc(NC(=O)Nc4cc(C(C)(C)C)cc(-c5nnco5)c4OC)c4ccccc34)n2)cc(OC)c1 [Example 59]
Solution: 6.88

Exercise: Name the recorded pIC50 for COc1cc(Nc2cc(Oc3ccc(NC(=O)Nc4cc(C(C)(C)C)cc(NS(C)(=O)=O)c4OC)c4ccccc34)ccn2)cc(OCCOCCOCCO)c1 [84(e)] .
Solution: 7.11

Exercise: # get_value(readout='pIC50', item= COc1cccc(Nc2cc(Oc3ccc(NC(=O)Nc4cc(C(C)(C)C)cc(C(=O)NC5COC5)c4OC)c4ccccc34)ccn2)c1 [Example 81] )
Solution: 6.76

----------
Provide the recorded pIC50 for the entries that follow.
When answering, recall that pIC50 equals minus log10 of the concentration in mol/L, and write that number alone.

Exercise: Given the entry COCCOCCOCCOc1cc(Nc2cc(Oc3ccc(NC(=O)Nc4cc(C(C)(C)C)cc(NS(C)(=O)=O)c4OC)c4ccccc34)ccn2)cc(OC)c1 [Example 11] , what pIC50 was observed with GSK 3α (Homo sapiens (Human), UniProt P49840)?
Solution: 4.91

Exercise: # get_value(readout= pIC50, system= GSK 3α (Homo sapiens (Human), UniProt P49840)) for COCCOCCOCCOc1cc(Nc2cc(Oc3ccc(NC(=O)Nc4cc(C(C)(C)C)cc(C(=O)NC5COC5)c4OC)c4ccccc34)ccn2)cc(OC)c1 [Example 77]
Solution: 5.45

Exercise: Form entry - test system: GSK 3α (Homo sapiens (Human), UniProt P49840); read-out: pIC50; molecule: CNC(=O)c1cc(C(C)(C)C)cc(NC(=O)Nc2ccc(Oc3ccnc(Nc4cc(OC)cc(OCCOCCOCCOC)c4)c3)c3ccccc23)c1OC [Example 29]
Sequence (P49840 whole entry): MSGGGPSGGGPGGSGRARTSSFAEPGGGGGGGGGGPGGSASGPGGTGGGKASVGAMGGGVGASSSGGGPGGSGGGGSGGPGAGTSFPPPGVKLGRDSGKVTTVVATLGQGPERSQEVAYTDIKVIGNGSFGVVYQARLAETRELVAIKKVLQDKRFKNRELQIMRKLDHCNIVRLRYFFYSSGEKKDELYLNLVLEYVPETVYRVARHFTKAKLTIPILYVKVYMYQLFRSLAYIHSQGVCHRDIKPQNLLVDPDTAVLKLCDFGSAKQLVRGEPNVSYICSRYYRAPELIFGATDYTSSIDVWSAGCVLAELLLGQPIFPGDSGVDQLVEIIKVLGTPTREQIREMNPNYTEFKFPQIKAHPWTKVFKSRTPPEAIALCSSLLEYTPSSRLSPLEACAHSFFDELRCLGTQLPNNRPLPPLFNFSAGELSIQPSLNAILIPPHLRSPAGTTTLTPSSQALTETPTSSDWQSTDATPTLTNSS
Solution: 5.20

Exercise: GET /values?readout=pIC50&system=GSK 3α (Homo sapiens (Human), UniProt P49840)&item= COc1cc(Nc2cc(Oc3ccc(NC(=O)Nc4cc(C(C)(C)C)cc(NS(C)(=O)=O)c4OC)c4ccccc34)ccn2)cc(C(=O)NCCCN2CCOCC2)c1 [Example 66]
Solution: 5.61

Exercise: Provide value of pIC50 for this record tested with GSK 3α (Homo sapiens (Human), UniProt P49840): COCCNC(=O)c1cc(C(C)(C)C)cc(NC(=O)Nc2ccc(Oc3ccnc(Nc4cc(OC)cc(OCCOCCOCCOC)c4)n3)c3ccccc23)c1OC [Example 43]
Solution: 6.28

Exercise: Checklist item: pIC50 tested on GSK 3α (Homo sapiens (Human), UniProt P49840), entry C#Cc1cc(Nc2nccc(Oc3ccc(NC(=O)Nc4cc(F)cc(N5CCOCC5)c4)c4ccccc34)n2)cc(C(=O)NCCN2CCOCC2)c1 [Example 2] , value?
Solution: 4.90
